Listed next: entries and their corresponding TGI.
# Test system: OVCAR-8 ovarian
# assay_comment: NCI tumour cell line growth inhibition, 48 h

Sample answers from the record:
CC(=O)Oc1ccc2cc(-c3ccc(OC(C)=O)c(OC(C)=O)c3)c(=O)oc2c1    > 100 µM
CN(C)CCS(=O)(=O)Nc1cc(-c2ccc3ncc(C#N)c(Nc4ccc(F)c(Cl)c4)c3c2)cnc1Cl    > 32.6 µM

The compound `COc1ccc2c(c1)[n+]([O-])c(/C(C)=N/NC(=O)c1ccccc1O)c(C)[n+]2[O-]` , tested on OVCAR-8 ovarian, showed TGI of > 100 µM

====

TGI overview
# System: NCI-H226 lung
# assay_comment: NCI tumour cell line growth inhibition, 48 h
Where a SMILES comes first, the peptide text is derived from it.

CNC(=O)c1cccc(C#Cc2cncnc2Nc2ccc(OCc3cccc(F)c3)c(Cl)c2)c1    > 17.9 µM

What the record says about `COC(=O)/N=[N+](\[O-])C(c1ccccc1)c1ccccc1` : TGI is > 100 µM

// `CC1=CC(=O)N(n2c(-c3ccccc3)n[nH]c2=O)C1=O` : TGI value = > 100 µM

CCC(C)C(NC(=O)C(CC(C)C)NC(=O)CNC(=O)C(NC(=O)C1CCCN1C(=O)C(CC(C)C)NC(=O)C(N)Cc1ccccc1)C(C)CC)C(=O)NC(CC(C)C)C(N)=O (configuration not stated) (H-FLPIGLIL-NH2; configuration not given here) has a reported TGI of > 75 µM

Looking up `CC(C)(C)n1c(=O)n2n(c1=O)C1c3cccc4cccc(c34)C2C2c3cccc4cccc(c34)C1n1c(=O)n(C(C)(C)C)c(=O)n12` , I found its TGI recorded as > 100 µM

// sample `Cc1cccc(Cl)c1NC(=O)c1cnc(Nc2cc(N3CCOCC3)cc(S(C)(=O)=O)c2)s1` , its TGI was > 10 µM

Measured TGI, `C#CCOCn1cc(C)c(=O)[nH]c1=O` : > 100 µM
